Parameter MIC, tested on Moraxella catarrhalis ATCC25238, listed per item.
outcome-measure: MIC (µg/mL)

| molecule | meas-value |
| --- | --- |
| N#CC1(c2ccc(N3C[C@H](CNc4ccon4)OC3=O)cc2F)CC1 | 8 |
| CC(=O)NC[C@H]1CN(c2ccc(N3CCOCC3)c(F)c2)C(=O)O1 [Linezolid, reference compound] | 4 |
| COC(=S)NC[C@H]1CN(c2ccc(C3(C#N)CC3)c(F)c2)C(=O)O1 | 0.5 |
| CC(=O)NC[C@H]1CN(c2ccc(C3(C#N)CC3)c(F)c2)C(=O)O1 | 4 |
| CC(=S)NC[C@H]1CN(c2ccc(C3(C#N)CC3)c(F)c2)C(=O)O1 | 0.5 |
